Parameter: pEC50. Scope: all listed entries.
target: Glucocorticoid receptor (Homo sapiens, UniProt P04150); assay: Binding affinity to glucocorticoid receptor (unknown origin) by fluorescence polarization competitive binding assay
Sequence (P04150 whole entry): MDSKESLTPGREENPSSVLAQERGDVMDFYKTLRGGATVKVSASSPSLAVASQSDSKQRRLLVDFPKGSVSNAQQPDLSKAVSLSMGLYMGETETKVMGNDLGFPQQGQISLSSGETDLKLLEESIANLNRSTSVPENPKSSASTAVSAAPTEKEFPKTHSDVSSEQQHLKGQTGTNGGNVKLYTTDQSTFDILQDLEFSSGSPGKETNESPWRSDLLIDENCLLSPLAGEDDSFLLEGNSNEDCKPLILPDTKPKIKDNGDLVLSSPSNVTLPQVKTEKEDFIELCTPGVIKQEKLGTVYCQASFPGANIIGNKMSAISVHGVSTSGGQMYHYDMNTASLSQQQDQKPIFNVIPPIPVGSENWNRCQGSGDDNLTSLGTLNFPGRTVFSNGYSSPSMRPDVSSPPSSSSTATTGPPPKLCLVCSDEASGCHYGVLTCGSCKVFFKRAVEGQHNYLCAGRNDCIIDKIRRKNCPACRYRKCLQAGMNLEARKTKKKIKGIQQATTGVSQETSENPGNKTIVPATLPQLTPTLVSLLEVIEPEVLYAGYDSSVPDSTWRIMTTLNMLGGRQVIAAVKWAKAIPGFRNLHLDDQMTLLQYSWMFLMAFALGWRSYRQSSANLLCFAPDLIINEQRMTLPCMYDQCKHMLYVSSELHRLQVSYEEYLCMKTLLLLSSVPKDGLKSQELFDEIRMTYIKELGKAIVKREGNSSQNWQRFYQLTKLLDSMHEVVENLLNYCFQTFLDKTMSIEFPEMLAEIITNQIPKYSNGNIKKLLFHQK
Please report pEC50 as the negative decimal logarithm of the molar concentration, giving only the number.

smiles_representation	recorded_value
CC[C@H]1OC(=O)[C@H](C)[C@@H](O[C@H]2C[C@@](C)(OC)[C@@H](O)[C@H](C)O2)[C@H](C)[C@@H](O[C@@H]2O[C@H](C)C[C@H](N(C)C)[C@H]2O)[C@](C)(O)C[C@@H](C)CN(CCCNC(=O)[C@@]2(O)[C@H](C)C[C@H]3[C@@H]4C[C@H](F)C5=CC(=O)C=C[C@]5(C)[C@@]4(F)[C@@H](O)C[C@@]32C)[C@H](C)[C@@H](O)[C@]1(C)O	6.04

// switching to the query compound
Could you share which pEC50 value was measured for CC[C@H]1OC(=O)[C@H](C)[C@@H](O)[C@H](C)[C@@H](O[C@@H]2O[C@H](C)C[C@H](N(C)C)[C@H]2O)[C@](C)(O)C[C@@H](C)CN(CCCNC(=O)[C@@]2(O)[C@H](C)C[C@H]3[C@@H]4C[C@H](F)C5=CC(=O)C=C[C@]5(C)[C@@]4(Cl)[C@@H](O)C[C@@]32C)[C@H](C)[C@@H](O)[C@]1(C)O ?
6.46
